- experimentalDetails: Selectivity, ratio of IC50 for BACE2 to IC50 for BACE1
Use 40 as the dividing line for Ratio IC50, with the line itself on the Satisfied side and lower values as Not satisfied.

Study these solved cases before continuing.
CCc1cn2c3c(cc(C(=O)N[C@@H](Cc4ccccc4)[C@H](O)CNC4CC4)cc13)NS(=O)(=O)CCC2 :: Not satisfied
CCNc1cc(C(=O)N[C@@H](Cc2ccccc2)[C@H](O)CNC2CCOCC2)cc2c1CCCS(=O)(=O)N2C :: Satisfied
CCNc1cc(C(=O)N[C@@H](Cc2ccccc2)[C@H](O)CNC2CC2)cc2c1CCCS(=O)(=O)N2C :: Satisfied
CCc1cn2c3c(cc(C(=O)N[C@@H](Cc4ccccc4)[C@H](O)CNC(C)(C)CCCC(C)C)cc13)N(C)S(=O)(=O)CC2 :: Not satisfied
CCc1cn2c3c(cc(C(=O)N[C@@H](Cc4ccccc4)[C@H](O)CNCCC(F)(F)F)cc13)N(C)S(=O)(=O)CC2 :: Not satisfied
CCNc1cc(C(=O)N[C@@H](Cc2ccccc2)[C@H](O)CNCc2cccc(C(F)(F)F)c2)cc(N2CCCCS2(=O)=O)c1 :: Satisfied
CCc1cn2c3c(cc(C(=O)N[C@@H](Cc4ccccc4)[C@H](O)CNC4CC4)cc13)N(C)S(=O)(=O)CC2 :: Not satisfied
CCc1cn2c3c(cc(C(=O)N[C@@H](Cc4ccccc4)[C@H](O)CNc4ccc(OC)cc4)cc13)NS(=O)(=O)CCC2 :: Satisfied

QUERY: Given the entry `CCc1cn2c3c(cc(C(=O)N[C@@H](Cc4ccccc4)[C@H](O)CNC4CCOCC4)cc13)N(C)S(=O)(=O)CC2` , answer whether its Ratio IC50 meets or surpasses 40.
RESULT: Not satisfied

QUERY: Now consider `CCc1cn2c3c(cc(C(=O)N[C@@H](Cc4ccccc4)[C@H](O)CNCc4cccc(C(F)(F)F)c4)cc13)N(C)S(=O)(=O)CC2` and answer again.
RESULT: Not satisfied

QUERY: Note, next up: `CCc1cn2c3c(cc(C(=O)N[C@@H](Cc4ccccc4)[C@H](O)CNC4CCCCC4)cc13)N(C)S(=O)(=O)CC2`
RESULT: Not satisfied

QUERY: Let us now turn to `CCc1cn2c3c(cc(C(=O)N[C@@H](Cc4ccccc4)[C@H](O)CNC)cc13)N(C)S(=O)(=O)C2`
RESULT: Not satisfied

QUERY: Another molecule: `CCNc1cc(C(=O)N[C@@H](Cc2ccccc2)[C@H](O)CNCCC(F)(F)F)cc2c1CCCS(=O)(=O)N2C`
RESULT: Satisfied

QUERY: Please do the same for `CCNc1cc(C(=O)N[C@@H](Cc2ccccc2)[C@H](O)CNC2CC2)cc(N2CCCCS2(=O)=O)c1` as well.
RESULT: Satisfied

Every entry's value here was drawn from ChEMBL document CHEMBL1158445.
